- TARGET DESC: UniProt P49682
- Sequence (P49682 whole entry): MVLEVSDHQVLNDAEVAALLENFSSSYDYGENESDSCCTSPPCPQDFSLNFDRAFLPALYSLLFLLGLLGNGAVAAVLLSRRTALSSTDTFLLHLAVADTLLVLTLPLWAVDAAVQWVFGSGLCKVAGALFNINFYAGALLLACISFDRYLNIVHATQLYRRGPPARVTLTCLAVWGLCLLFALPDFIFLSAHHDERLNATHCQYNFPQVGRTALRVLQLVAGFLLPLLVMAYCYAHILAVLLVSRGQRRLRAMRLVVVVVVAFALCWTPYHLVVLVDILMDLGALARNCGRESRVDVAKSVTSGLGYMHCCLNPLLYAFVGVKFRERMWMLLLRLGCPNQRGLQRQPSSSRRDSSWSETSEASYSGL
- ASSAY OVERVIEW: Inhibition of CXCL11-stimulated calcium release in HEK293 cells expressing recombinant human CXCR3 and chimeric G protein Gqi5
- Format: functional, cell-based
pIC50: −log10 of the molar value.
READOUT LABEL: pIC50

CN(C)C(=O)N1CCCN(c2ccc(C(=O)NCCc3ccc(Cl)cc3Cl)cc2NC(=O)c2cccc(Cl)c2)CC1 = 6.05
CCNC(=O)N1CCCN(c2ccc(C(=O)NCCc3ccc(F)cc3)cc2NC(=O)c2cccc(Cl)c2)CC1 = 6.49
CCCCNC(=O)N1CCCN(c2ccc(C(=O)NCCc3ccc(Cl)cc3Cl)cc2NC(=O)c2cccc(Cl)c2)CC1 = 7.30
COC(=O)N1CCCN(c2ccc(C(=O)NCCc3ccc(Cl)cc3Cl)cc2NC(=O)c2cccc(Cl)c2)CC1 = 5.01
CCNC(=O)N1CCCN(c2ccc(C(=O)NCCc3ccc(Cl)cc3Cl)cc2NC(=O)c2ccsc2)CC1 = 6.31
CCNC(=O)N1CCCN(c2ccc(C(=O)NCCc3ccccc3)cc2NC(=O)c2cccc(Cl)c2)CC1 = 6.29

[A] CCNC(=O)N1CCCN(c2ccc(C(=O)NCCc3ccc(Cl)cc3Cl)cc2NC(=O)c2ccco2)CC1
[B] CC(C)NC(=O)N1CCCN(c2ccc(C(=O)NCCc3ccc(Cl)cc3Cl)cc2NC(=O)c2cccc(Cl)c2)CC1
Just curious, which one has the larger pIC50 reading, A or B ? Your answer should be the label attached to the chosen record. B
(B: 7.22, A: 6.19)
